Target: T1, BMPRIb receptor-Fc fusion (UniProt O00238 14-126)
T1 construct: BMP receptor-Fc fusion used at 5 ug/mL; also called ALK-6
T1 sequence (looked up): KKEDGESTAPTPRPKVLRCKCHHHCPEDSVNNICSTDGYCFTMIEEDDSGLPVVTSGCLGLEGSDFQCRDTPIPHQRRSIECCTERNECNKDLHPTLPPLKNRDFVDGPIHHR
Assay: ELISA-like plate assay, captured BMP-7 from conditioned media, receptor-Fc detection
measured parameter: BMPRIb binding (relative to wild type = 1.0)

Identify measured BMPRIb binding (relative to wild type = 1.0) corresponding to BMP-7 variant R129S (ligand, In conditioned media; numbering on mature BMP-7) STGGKQRSQNRSKTPKNQEALRMASVAENSSSDQRQACKKHELYVSFRDLGWQDWIIAPEGYAAYYCEGECAFPLNSYMNATNHAIVQTLVHFINPETVPKPCCAPTQLNAISVLYFDDSSNVILKKYSNMVVRACGCH
0.37 relative to wild type
